System: A. baumannii ATCC 17978
PROTOCOL_NOTES: Checkerboard assay
Type: cell-based, Acinetobacter baumannii
MEASUREMENT_SETUP: in combination with AIG-R5
Bridge positions count the residues as written; N and C are the ends. Square brackets hold non-standard residues; d marks the D form. Peptide text beside a SMILES is read from it. * marks the point of attachment. X1 = CC[C@H](C)CCCCC(=O)*; Dab = NCC[C@H](N)C(=O)O
METRIC_NAME: MIC in combination, Antibiotic (µg/mL)
# number only, unit µg/mL dropped from output

[[record]]
molecule = "CO[C@H]1/C=C/O[C@@]2(C)Oc3c(C)c(O)c4c(O)c(cc(O)c4c3C2=O)NC(=O)/C(C)=C\\C=C\\[C@H](C)[C@H](O)[C@@H](C)[C@@H](O)[C@@H](C)[C@H](OC(C)=O)[C@@H]1C"
value_measured = 2

[[record]]
molecule = "CC[C@H](C)CCCCC(=O)N[C@@H](CCN)C(=O)N[C@H](C(=O)N[C@@H](CCN)C(=O)N[C@H]1CCNC(=O)[C@H]([C@@H](C)O)NC(=O)[C@H](CCN)NC(=O)[C@H](CCN)NC(=O)[C@H](CC(C)C)NC(=O)[C@@H](CC(C)C)NC(=O)[C@H](CCN)NC1=O)[C@@H](C)O [Colistin] (X1-[Dab]T[Dab][Dab][Dab][dL]L[Dab][Dab]T; lactam 4-C (inferred); N-terminus assumed)"
value_measured = 0.5

[[record]]
molecule = "NC[C@H]1O[C@H](O[C@H]2[C@H](O)[C@@H](O[C@H]3O[C@H](CO)[C@@H](O)[C@H](N)[C@H]3O)[C@H](N)C[C@@H]2N)[C@H](O)[C@@H](O)[C@@H]1O.O=S(=O)(O)O [Kanamycin sulphate]"
value_measured = 1

[[record]]
molecule = "NC[C@H]1O[C@H](O[C@H]2[C@H](O)[C@@H](O[C@H]3O[C@H](CO)[C@@H](O)[C@H](N)[C@H]3O)[C@H](N)C[C@@H]2N)[C@H](N)C[C@@H]1O"
value_measured = 0.5

[[record]]
molecule = "C[C@@H](O)[C@H]1C(=O)N2C(C(=O)O)=C(SCCN=CN)C[C@H]12"
value_measured = 1


Next item in the queue.
Request: Form: Entry = NCC[C@H](O)C(=O)N[C@@H]1C[C@H](N)[C@@H](O[C@H]2O[C@H](CN)[C@@H](O)[C@H](O)[C@H]2O)[C@H](O)[C@H]1O[C@H]1O[C@H](CO)[C@@H](O)[C@H](N)[C@H]1O | System = A. baumannii ATCC 17978 | MIC in combination, Antibiotic = ____
Response: 0.5
